I'd appreciate it if you could supply %Inh values for the items below.
Test system: SGK3;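 further: KINOMEscan kinase panel screen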
Conditions: concentration: 1 μM,replicates: in singlicate; n = 1
Reply with just the number (in %).

Form field: reported %Inh of "C[C@@H](Oc1cc(-c2cnn(C3CCNCC3)c2)cnc1N)c1c(Cl)ccc(F)c1Cl"
49

# repeat for "CC(C)N1C(=O)Cc2cc(Nc3ncc(C(F)(F)F)c(NCc4cccc(S(C)(=O)=O)c4)n3)ccc21"
28

# repeat for "Cc1occc1-c1nc(N)c(OC[C@@H](N)Cc2c[nH]c3ccccc23)cc1-c1cc2c(C)n[nH]c2cn1"
84

# repeat for "C=CC(=O)Nc1cc2c(Nc3ccc(F)c(Cl)c3)ncnc2cc1OCCCN1CCOCC1"
8

# repeat for "CN(C)CCOc1ccc(-c2cc(-c3c[nH]nc3-c3ccccn3)ccn2)cc1"
23

# repeat for "Nc1nc(Nc2ccccc2)cc(-c2ccc3c(N)n[nH]c3c2)n1"
9

# repeat for "CC(C)Nc1cc(-c2ccc3c(N)n[nH]c3c2)nc(N)n1"
7

# repeat for Cl.Cl.Nc1nc(-c2ccc3c(N)n[nH]c3c2)cc(N2CCCC(NC(=O)c3ccccc3)C2)n1 (stereo not drawn)
37

# repeat for "Cc1ccc(-n2nc(C(C)(C)C)cc2NC(=O)Nc2ccc(OCCN3CCOCC3)c3ccccc23)cc1"
0
